- tgt: Tb-labeled inactive PDGFRβ (Homo sapiens (Human))
- Sequence (P09619 33-1106): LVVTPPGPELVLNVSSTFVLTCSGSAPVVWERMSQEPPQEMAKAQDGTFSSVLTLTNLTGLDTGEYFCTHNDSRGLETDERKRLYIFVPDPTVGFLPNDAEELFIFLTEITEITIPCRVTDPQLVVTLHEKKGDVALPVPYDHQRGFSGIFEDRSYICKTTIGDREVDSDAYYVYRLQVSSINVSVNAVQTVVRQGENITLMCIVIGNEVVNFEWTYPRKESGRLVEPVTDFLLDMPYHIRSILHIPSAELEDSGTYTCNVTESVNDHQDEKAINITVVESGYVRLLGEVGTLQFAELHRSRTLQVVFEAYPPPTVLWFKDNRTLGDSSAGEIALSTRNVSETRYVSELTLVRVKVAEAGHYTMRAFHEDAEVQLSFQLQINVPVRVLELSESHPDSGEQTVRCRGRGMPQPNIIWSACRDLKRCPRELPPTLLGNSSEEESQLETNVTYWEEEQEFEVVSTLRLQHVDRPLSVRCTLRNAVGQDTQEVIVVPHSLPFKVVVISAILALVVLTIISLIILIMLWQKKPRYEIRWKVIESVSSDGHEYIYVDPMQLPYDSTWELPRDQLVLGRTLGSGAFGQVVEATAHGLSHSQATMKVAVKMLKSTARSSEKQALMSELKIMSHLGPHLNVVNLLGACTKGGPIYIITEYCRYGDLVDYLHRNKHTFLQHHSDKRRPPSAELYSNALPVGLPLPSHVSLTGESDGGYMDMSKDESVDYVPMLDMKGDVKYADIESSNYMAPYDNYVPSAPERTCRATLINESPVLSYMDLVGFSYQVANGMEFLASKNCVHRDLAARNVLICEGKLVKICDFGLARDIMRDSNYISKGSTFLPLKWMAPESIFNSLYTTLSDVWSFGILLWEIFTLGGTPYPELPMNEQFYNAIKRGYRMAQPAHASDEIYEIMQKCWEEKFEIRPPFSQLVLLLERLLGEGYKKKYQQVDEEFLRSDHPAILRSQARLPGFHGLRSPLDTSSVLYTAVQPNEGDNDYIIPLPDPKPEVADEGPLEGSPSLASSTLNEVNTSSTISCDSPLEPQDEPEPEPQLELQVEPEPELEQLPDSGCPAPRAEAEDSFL
- protocol.description: PDGFRβ LanthaScreen Assay
- condition.set: read-out: PDGFR Lantha IC50
pIC50 for assorted molecules
Remember the convention: pIC50 equals -log10 of concentration in molar.

The cases that follow already have their pIC50 on record.
Cc1ncc(NC(=O)OCCN2CCCC2(C)C)cc1NC(=O)c1cnn2cc(-c3cnn(C)c3)sc12 ... 7.71
Cc1ncc(NC(=O)CN2CCC3(CC2)COC3)cc1NC(=O)c1cnn2cc(-c3cnn(C)c3)sc12 ... 7.05
Cc1ncc(C(=O)NCCN2CC3CCC2CC3)cc1NC(=O)c1cnn2cc(-c3cnn4c3CCC4)sc12 ... 8.60
COCC1CN(CC(=O)Nc2cnc(C)c(NC(=O)c3cnn4cc(-c5cnn(C)c5)sc34)c2)CC(C)(C)O1 (centres unmarked) ... 8.11
COc1cc(-c2cn3ncc(C(=O)Nc4cc(NC(=O)CN5CC(C)(C)C5)cnc4C)c3s2)c(OC)nn1 ... 8.29

[ask] Find the recorded pIC50 belonging to COc1ncccc1-c1cn2ncc(C(=O)Nc3cc(NC(=O)CN4C[C@H](C)O[C@@H](C)C4)cnc3C)c2s1 (relative stereo) [Example 384] and report it.
[reply] 8.64

----------
Here we list compounds with their recorded IC50 when tested on His6-TEV-PDGFRβ (557-1016) (Homo sapiens (Human), UniProt P09619).
Sequence (P09619 557-1016): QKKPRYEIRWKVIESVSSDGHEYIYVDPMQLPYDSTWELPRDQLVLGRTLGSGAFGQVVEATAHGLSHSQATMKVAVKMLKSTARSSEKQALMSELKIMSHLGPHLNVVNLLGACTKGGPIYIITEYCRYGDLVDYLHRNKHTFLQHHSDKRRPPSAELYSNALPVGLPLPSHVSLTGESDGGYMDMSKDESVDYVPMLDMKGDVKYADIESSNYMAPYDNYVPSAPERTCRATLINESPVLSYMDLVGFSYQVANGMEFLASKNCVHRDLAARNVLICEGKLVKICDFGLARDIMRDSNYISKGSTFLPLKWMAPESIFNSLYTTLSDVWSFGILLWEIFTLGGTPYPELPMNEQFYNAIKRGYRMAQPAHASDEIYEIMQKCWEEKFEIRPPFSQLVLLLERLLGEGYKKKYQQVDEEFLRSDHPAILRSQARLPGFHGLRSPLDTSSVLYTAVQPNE
A number alone suffices; assume nM.

Cc1ncc(NC(=O)CN2CCOCC23CC3)cc1NC(=O)c1cnn2cc(-c3cnn(C)c3)sc12 [Example 47] ... 0.9

[ask] Which IC50 reading was recorded for the compound Cc1ncc(NC(=O)CN(C)C2CCOCC2)cc1NC(=O)c1cnn2cc(-c3cnn(C4CCC4)c3)sc12 [Example 296] ?
[reply] 0.3

[ask] Quick one: IC50 of Cc1ncc(NC(=O)CN2CCC[C@@H]2C)cc1NC(=O)c1cnn2cc(-c3ccnc(N4CCOCC4)c3)sc12 [Example 352] ?
[reply] 0.3

----------
- tgt: UniProt:Q05030
- Sequence (Q05030 32-1097): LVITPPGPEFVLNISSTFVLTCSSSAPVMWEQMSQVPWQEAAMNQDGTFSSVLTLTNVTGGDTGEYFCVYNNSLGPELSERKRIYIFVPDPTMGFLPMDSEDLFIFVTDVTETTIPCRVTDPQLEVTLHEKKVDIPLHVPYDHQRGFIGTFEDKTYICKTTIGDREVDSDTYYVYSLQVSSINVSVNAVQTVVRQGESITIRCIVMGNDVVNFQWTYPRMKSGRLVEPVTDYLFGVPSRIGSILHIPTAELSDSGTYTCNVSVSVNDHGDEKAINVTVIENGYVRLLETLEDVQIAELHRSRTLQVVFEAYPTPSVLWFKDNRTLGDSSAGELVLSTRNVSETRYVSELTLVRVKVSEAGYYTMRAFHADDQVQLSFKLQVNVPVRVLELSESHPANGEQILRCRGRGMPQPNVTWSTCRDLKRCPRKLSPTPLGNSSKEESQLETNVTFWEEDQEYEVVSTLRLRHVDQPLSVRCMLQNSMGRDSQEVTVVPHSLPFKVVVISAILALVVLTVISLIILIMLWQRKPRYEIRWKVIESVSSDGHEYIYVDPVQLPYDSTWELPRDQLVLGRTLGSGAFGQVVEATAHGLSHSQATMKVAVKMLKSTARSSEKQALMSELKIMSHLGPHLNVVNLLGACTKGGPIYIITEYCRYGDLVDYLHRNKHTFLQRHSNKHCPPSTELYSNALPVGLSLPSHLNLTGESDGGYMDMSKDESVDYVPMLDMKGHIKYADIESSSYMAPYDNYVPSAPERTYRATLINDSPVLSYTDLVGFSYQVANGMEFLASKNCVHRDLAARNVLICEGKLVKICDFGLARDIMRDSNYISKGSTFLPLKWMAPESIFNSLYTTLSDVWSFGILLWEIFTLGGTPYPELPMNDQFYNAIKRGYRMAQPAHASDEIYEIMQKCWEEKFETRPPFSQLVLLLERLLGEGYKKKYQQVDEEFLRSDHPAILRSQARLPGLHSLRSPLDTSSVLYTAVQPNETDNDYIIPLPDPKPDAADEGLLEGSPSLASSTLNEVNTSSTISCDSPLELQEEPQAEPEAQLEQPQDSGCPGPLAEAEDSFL
- protocol.description: PDGFRβ Cellular Assay (PDGFRb P-Y751 HTRF in A10 cells stimulated with PDGF-BB)
- Format: cell-based
- condition.set: read-out: PDGFR Cellular IC50
pIC50: −log10 of the molar value.
Please mark T if the recorded pIC50 is equal to or greater than 8, and F if it falls below.

Reference set (8 entries):
Cc1ncc(C(=O)NCCN2CCCC23COC3)cc1NC(=O)c1cnn2cc(-c3cnn(C)c3)sc12 [Example 114] ... F
Cc1ncc(NC(=O)CN2CC(C)(C)C2)cc1NC(=O)c1cnn2cc(-c3cnn(CC(N)=O)c3)sc12 [Example 267] ... F
Cc1ncc(NC(=O)CN2CC(C)(C)C2)cc1NC(=O)c1cnn2cc(-c3cc[nH]c3)sc12 [Example 285] ... T
Cc1ncc(NC(=O)CN2CC(C)(C)C2)cc1NC(=O)c1cnn2cc(-c3cnn4c3COCC4)sc12 [Example 476] ... T
Cc1ncc(C(=O)NCCN2CCCC2(C)C)cc1NC(=O)c1cnn2cc(-c3cn(C)cn3)sc12 [Example 163] ... F
Cc1ncc(NC(=O)CN2CCCC2(C)C)cc1NC(=O)c1cnn2cc(-c3cnn(C)c3)sc12 [Example 13] ... T
Cc1cc(C(=O)NCCN2CCOCC23CC3)sc1NC(=O)c1cnn2cc(-c3cnn(C)c3)sc12 [Example 197] ... F
Cc1ncc(NC(=O)CN2C[C@H](C)O[C@@H](C)C2)cc1NC(=O)c1cnn2cc(-c3c[nH]nc3C)sc12 (relative stereo) [Example 371] ... F

[ask] Determine whether measured pIC50 meets or exceeds 8 for Cc1ncc(C(=O)NCCN2CCCC23CC3)cc1NC(=O)c1cnn2cc(-c3cnn(C)c3)sc12 [Example 2]
[reply] F

[ask] Tell me whether pIC50 is at least 8 here: COCCn1cc(-c2cn3ncc(C(=O)Nc4cc(NC(=O)[C@@H]5CCCN5C(C)C)cnc4C)c3s2)cn1 [Example 343]
[reply] F

[ask] Given the entry Cc1ncc(NC(=O)CN2CC(C)(C)C2)cc1NC(=O)c1cnn2cc(-c3cnn(C)c3C)sc12 [Example 434] , answer whether its pIC50 meets or surpasses 8.
[reply] T

[ask] Check the entry Cc1ncc(NC(=O)OCC(C)(C)N2CCCC2)cc1NC(=O)c1cnn2cc(-c3cnn(C)c3)sc12 [Example 249] : does pIC50 equal or exceed 8?
[reply] F

[ask] Does the reported pIC50 for Cc1ncc(NS(=O)(=O)CCN2CC3CCC2CC3)cc1NC(=O)c1cnn2cc(-c3cnn(C)c3)sc12 [Example 358] fall at or above the 8 mark?
[reply] F
